Reported Ki values for a set of compounds
# test_system: human recombinant 5-HT2A receptor (Homo sapiens (Human))
# Sequence (P28223 whole entry): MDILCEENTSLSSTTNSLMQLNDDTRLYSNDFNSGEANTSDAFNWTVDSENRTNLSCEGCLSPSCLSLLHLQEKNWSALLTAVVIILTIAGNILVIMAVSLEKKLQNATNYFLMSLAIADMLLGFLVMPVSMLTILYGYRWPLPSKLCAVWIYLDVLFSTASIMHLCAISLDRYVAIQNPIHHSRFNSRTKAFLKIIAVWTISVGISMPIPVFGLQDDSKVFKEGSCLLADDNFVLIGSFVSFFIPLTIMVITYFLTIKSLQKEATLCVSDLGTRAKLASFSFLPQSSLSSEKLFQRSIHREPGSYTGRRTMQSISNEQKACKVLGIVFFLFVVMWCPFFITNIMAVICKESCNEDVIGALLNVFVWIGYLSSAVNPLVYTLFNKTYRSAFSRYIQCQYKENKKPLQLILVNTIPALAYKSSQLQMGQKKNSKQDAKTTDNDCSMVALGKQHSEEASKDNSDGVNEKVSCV
# experiment_description: 5-HT2A receptor binding inhibition test ([3H]-Ketanserin)
# reported_conditions: Jump-In HEK cell membrane, 25° C. 1.5 hours, read-out: h-5-HT2A Ki
measurement_label: Ki

Cc1nc(CN(Cc2ccc(Cc3ccccc3)cc2)C2=NOC3(CCN(C)CC3)N2)co1
< 0.01 µM
CCCOc1ccc(CNC2=NOC3(CCN(C)CC34CC4)N2Cc2ccn(C)n2)cc1 (racemic)
0.1 to 0.5 µM
Cn1ccc(CN2C(Cc3ccc(OC4CC4)cc3)=NOC23CCNCC32CC2)n1 (racemic)
0.01 to 0.1 µM
Cc1cc(CN(Cc2ccc(OCC(C)C)cc2)C2=NC(=O)C3(CCN(C)CC3)N2)nn1C
0.01 to 0.1 µM
Cc1nc(CN(Cc2nc3ccccc3o2)C2=NOC3(CCN(C)CC3)N2)co1
0.01 to 0.1 µM
Cc1nc(CN(Cc2ccc3ncccc3c2)C2=NOC3(CCN(C)CC3)N2)co1
< 0.01 µM
CC(C)COc1ccc(CN(Cc2ccn(C)n2)C2=NOC3(CCN(C)CC3)N2)cc1
< 0.01 µM
CC(C)COc1ccc(CC2=NOC3(CCN(C)CC3)N2Cc2ccc(F)cc2O)cc1
< 0.01 µM
Cc1ccc(CN(Cc2ccc(OCC(C)C)cc2)C2=NC(=O)C3(CCN(C)CC3)N2)cn1
0.01 to 0.1 µM
Cc1nc(CN(Cc2ccc(OCC3CC(F)(F)C3)cc2)C2=NOC3(CCN(C)CC3)N2)co1
< 0.01 µM
CC(C)COc1ccc(CN(Cc2ccn(C)n2)C2=NOC3(CCNCC3)N2)cc1
< 0.01 µM
CC(C)COc1ccc(CN(C2=NOC3(CCN(C)CC3)N2)C(C)c2ccc(F)cc2)cc1 (single isomer, unassigned)
0.1 to 0.5 µM
CCCOc1ccc(CC2=NOC3(CCN(C)CC34CC4)N2Cc2ccn(C)n2)cc1 (single isomer, unassigned) [Compound I-045]
0.01 to 0.1 µM

###

Reported pKi values for a set of compounds
# test_system: human recombinant 5-HT2A receptor (Homo sapiens (Human))
# experiment_description: 5-HT2A receptor binding inhibition test ([3H]-Ketanserin)
# reported_conditions: Jump-In HEK cell membrane, 25° C. 1.5 hours, read-out: h-5-HT2A Ki
pKi: −log10 of the molar value.
measurement_label: pKi

CC(C)CNc1ccc(CN(Cc2ccn(C)n2)C2=NOC3(CCN(C)CC3)N2)cc1 [Compound I-023]
7.00 to 8.00
Cc1nc(CN(Cc2ccc(OCC(F)(F)C(F)(F)F)cc2)C2=NOC3(CCN(C)CC3)N2)co1 [Compound I-082]
> 8.00
CN1CCC2(CC1)NC(N(Cc1ccc(OCC(F)(F)F)c(F)c1)Cc1coc(C3CC3)n1)=NO2 [Compound I-116]
> 8.00
